These measurements were taken from patent US20240327334A1.

- target_or_system: SARS-CoV-2 Papain-like (PLpro) protease (Severe acute respiratory syndrome coronavirus 2, UniProt P0DTD1)
- assay_details: SARS-CoV-2 Papain-like (PLpro) protease biochemical enzyme inhibition assay (ubiquitin-fluorophore substrate, Ub-R110)
- measurement_setup: Ub-R110 substrate; run in duplicate; read-out: PLpro IC50
pIC50: −log10 of the molar value.
Item-by-item account of pIC50

| compound | pIC50 |
| --- | --- |
| CN(C)CCn1cc(-c2cc(F)cc(C3(NC(=O)c4ccccc4CNC(=O)C(=O)NCC#Cc4ccccn4)CC3)c2)cn1 [Example 250] | > 7.00 |
| O=C(NCC#Cc1nccs1)C(=O)NCc1ccccc1C(=O)NC1(c2cc(Cl)cc(-c3cnco3)c2)CC1 [Example 449] | > 7.00 |
| C#CCNC(=O)C(=O)NCc1ccccc1C(=O)NC1(c2cc(Cl)cc(-c3ccccc3F)c2)CC1 [Example 444] | > 7.00 |
| CC1(O)CN(c2cc(C3(NC(=O)c4ccccc4CNC(=O)C(=O)NCC#N)CC3)c3ccccc3c2)C1 [Example 319] | > 7.00 |
| C#CCNC(=O)C(=O)NCc1ccccc1C(=O)NC1(c2ccc(F)c(-c3cccs3)c2)CC1 [Example 223] | > 7.00 |
| C=CC(=O)NNC(=O)C(=O)Nc1ccccc1C(=O)N[C@H](C)c1cccc2ccccc12 [Example 27] | < 5.00 |
| N#CCNC(=O)C(=O)NCc1ccccc1C(=O)NC1(c2ccnc3cc(Cl)ccc23)CC1 [Example 423] | > 7.00 |

====

- target_or_system: SARS-CoV-2 Papain-like (PLpro) protease (Severe acute respiratory syndrome coronavirus 2, UniProt P0DTD1)
- assay_details: SARS-CoV-2 Papain-like (PLpro) protease biochemical enzyme inhibition assay (ubiquitin-fluorophore substrate, Ub-R110)
- measurement_setup: Ub-R110 substrate; run in duplicate; read-out: PLpro IC50
pIC50: −log10 of the molar value.
value_kind: pIC50

| molecule | result |
| --- | --- |
| O=C(C#CCNC(=O)C(=O)NCc1ccccc1C(=O)NC1(c2ccc3ccccc3c2)CC1)N[C@]12C[C@](C(F)(F)F)(C1)C2 [Example 537] | > 7.00 |
| O=C(NC/C=C/C(=O)N1CCCC1)C(=O)NCc1ccccc1C(=O)NC1(c2cccc3ccccc23)CC1 [Example 557] | > 7.00 |
| COCC(C)(C)NC(=O)/C=C/CNC(=O)C(=O)NCc1ccccc1C(=O)N[C@H](C)c1cccc2ccccc12 [Example 565] | 5.00 to 6.00 |
| C[C@@H](NC(=O)c1ccccc1CNC(=O)C(=O)NCC#N)c1cc(-c2ccccc2)cc(C(F)(F)F)c1 [Example 34] | > 7.00 |

====

- Test system: SARS-CoV-2 replicon
- assay_details: microbe, parasite or virus in culture
- Assay type: cell-based
- measurement_setup: Severe acute respiratory syndrome coronavirus 2, Huh-7
value_kind: EC50

| smiles_representation | result |
| --- | --- |
| O=C(NCC#CC(=O)N1CC(F)(F)C1)C(=O)NCc1ccccc1C(=O)NC1(c2ccc3ccccc3c2)CC1 | < 1000 nM |
| O=C(NCC#Cc1cccc(F)n1)C(=O)NCc1ccccc1C(=O)NC1(c2ccc3ccccc3c2)CC1 | < 1000 nM |
| Cc1nn(C2CC2)c(C)c1-c1cc(Cl)cc(C2(NC(=O)c3ccccc3CNC(=O)C(=O)NCC#Cc3nccs3)CC2)c1 | < 1000 nM |
| O=C(NCC#Cc1cscn1)C(=O)NCc1ccccc1C(=O)NC1(c2cccc3ccccc23)CC1 | < 1000 nM |
| O=C(NCC#Cc1nccs1)C(=O)NCc1ccccc1C(=O)NC1(c2ccc3nc(C4CC4)ccc3c2)CC1 | < 1000 nM |
| Cn1cc2cc(C3(NC(=O)c4ccccc4CNC(=O)C(=O)NCC#N)CC3)ccc2n1 | > 10000 nM |
| N#CCNC(=O)C(=O)NCc1ccc(C(=O)N2CC(F)(F)C2)cc1C(=O)NC1(c2ccc(F)c3ccccc23)CC1 | 1000 to 10000 nM |
| COC(=O)C#CCCNC(=O)C(=O)NCc1ccccc1C(=O)N[C@H](C)c1cccc2ccccc12 | < 1000 nM |
| C[C@@H](C#Cc1ccc(C#N)c(F)c1)NC(=O)C(=O)NCc1ccccc1C(=O)NC1(c2ccc3nn(C)cc3c2)CC1 | < 1000 nM |
| C[C@@H](C#Cc1nccs1)NC(=O)C(=O)NCc1ccccc1C(=O)NC1(c2cc(F)cc(-c3cnn(C4COC4)c3)c2)CC1 | < 1000 nM |
| COc1ccc(C2(NC(=O)c3ccccc3CNC(=O)C(=O)NCC#Cc3nccs3)CC2)cc1-c1cnn(C2CC2)c1 | < 1000 nM |
| C#CCNC(=O)C(=O)NCc1ccccc1C(=O)NC1(c2cc(-c3cnn(C(F)F)c3)cc(C(F)(F)F)c2)CC1 | 1000 to 10000 nM |
| C#CCNC(=O)C(=O)NCc1ccccc1C(=O)NC1(c2cc(F)c(F)c(-c3cccs3)c2)CC1 | 1000 to 10000 nM |
| N#C/C=C/CNC(=O)C(=O)NCc1ccccc1C(=O)NC1(c2ccc3c4c(cccc24)CC3)CC1 | < 1000 nM |
| N#CCNC(=O)C(=O)NCc1ccccc1C(=O)NC1(c2cc(Cl)cc(-c3cnco3)c2)CC1 | 1000 to 10000 nM |
| O=C(NCC#CBr)C(=O)NCc1ccccc1C(=O)NC1(c2ccc3ccccc3c2)CC1 | < 1000 nM |
| O=C(NCC#Cc1nccs1)C(=O)NCc1ccccc1C(=O)NC1(c2cnc3ccccc3c2)CC1 | 1000 to 10000 nM |
| COc1cc(C2(NC(=O)c3ccccc3CNC(=O)C(=O)N[C@@H](C)C#Cc3ncccn3)CC2)cc2cn(C3CC3)nc12 | < 1000 nM |
| O=C(NCC#Cc1ncccn1)C(=O)NCc1ccccc1C(=O)NC1(c2ccc3ccccc3c2)CC1 | < 1000 nM |
| O=C(NCC#Cc1ccc(F)cn1)C(=O)NCc1ccccc1C(=O)NC1(c2cc(-c3cnn(C4CC4)c3)cc(C3CC3)c2)CC1 | < 1000 nM |
| C#CCNC(=O)C(=O)NCc1ccccc1C(=O)NC1(c2cc(Cl)cc(-c3nnc(C)o3)c2)CC1 | < 1000 nM |
| O=C(C#CCNC(=O)C(=O)NCc1ccccc1C(=O)NC1(c2ccc3ccccc3c2)CC1)N[C@]12C[C@](C(F)(F)F)(C1)C2 | < 1000 nM |
| C[C@@H](C#Cc1nccs1)NC(=O)C(=O)NCc1ccccc1C(=O)NC1(c2cc(Cl)c3nn(C4CC4)cc3c2)CC1 | < 1000 nM |
| N#CCNC(=O)C(=O)NCc1ccccc1C(=O)NC1(c2ccc3sc4ccccc4c3c2)CC1 | 1000 to 10000 nM |
| C[C@@H](C#Cc1ncccc1Cl)NC(=O)C(=O)NCc1ccccc1C(=O)NC1(c2ccc3nn(C)cc3c2)CC1 | < 1000 nM |
| COc1ccc(C2(NC(=O)c3ccccc3CNC(=O)C(=O)NCC#N)CC2)cc1Br | 1000 to 10000 nM |
| CC(C)[C@@H](C#Cc1nccs1)NC(=O)C(=O)NCc1ccccc1C(=O)NC1(c2ccc3nn(C)cc3c2)CC1 | < 1000 nM |
| O=C(NCC#Cc1nccs1)C(=O)NCc1ccccc1C(=O)NC1(c2ccn3nccc3c2)CC1 | < 1000 nM |
| C#CCNC(=O)C(=O)NCc1ccc(C(=O)N2CC(F)(F)C2)cc1C(=O)NC1(c2ccc(F)c3ccccc23)CC1 | < 1000 nM |
